Taken from PubChem BioAssay (NCI).

tested on: MOLT-4 leukemia; assay: NCI tumour cell line growth inhibition, 48 h
Please provide measured GI50 for the entries that follow.

Exercise: Requested read-out: GI50. Entry: CS(=O)(=O)CCN(CC#N)Cc1ccc(-c2ccc3ncnc(Nc4ccc(OCc5cccc(F)c5)c(Cl)c4)c3c2)o1
Solution: 8.81 µM

Exercise: Requested read-out: GI50. Entry: O=C(NCCCN1CCC(N2CCCCC2)CC1)C1=Cc2cc(Br)ccc2OC1
Solution: 7.41 µM

Exercise: Requested read-out: GI50. Entry: Cn1cc(-c2nonc2-c2cn(C)c3ccc(F)cc23)c2ccccc21
Solution: 0.685 µM

Exercise: Requested read-out: GI50. Entry: CCC(=O)c1c(C(F)(F)F)n([O-])c2cc(N3CCNCC3)c(F)cc2[n+]1=O
Solution: 2.03 µM

Exercise: Requested read-out: GI50. Entry: O=C1/C(=C\c2ccc(Cl)cc2)CCOc2c1ccc1ccccc21
Solution: 11.7 µM

Exercise: Requested read-out: GI50. Entry: COc1cc(-c2cc(/C=C3\C(=O)Nc4cc(Cl)ccc43)[nH]n2)cc(OC)c1OC
Solution: 2.48 µM

Exercise: Requested read-out: GI50. Entry: COc1cc2c(/C=C3\C(=O)N(C)c4ccc(O)cc43)c[nH]c2cc1C
Solution: 3.3 µM

Exercise: Requested read-out: GI50. Entry: N[C@H]1C[C@@H]1c1ccc(-c2cccc(O)c2)cc1
Solution: 22.3 µM

Exercise: Requested read-out: GI50. Entry: NC1CCCCC1N.O=C([O-])c1cc(S(=O)(=O)Nc2cc(S(=O)(=O)[O-])cc3cc(S(=O)(=O)[O-])cc(O)c23)ccc1[O-].[Pt+4]
Solution: > 100 µM

Exercise: Requested read-out: GI50. Entry: Clc1ccc(Nc2nnc(CNc3ccccc3)c3ccccc23)cc1
Solution: 1.71 µM

Exercise: Requested read-out: GI50. Entry: O=C1NC(=NCc2ccccc2Br)S/C1=C\c1ccc2ncccc2c1
Solution: 10 µM

Exercise: Requested read-out: GI50. Entry: Cn1cc(C2=C(Oc3ccccc3)C(=O)NC2=O)c2ccccc21
Solution: > 25 µM

---

Please provide measured TGI for the entries that follow.
tested on: HS 578T breast; assay: NCI tumour cell line growth inhibition, 48 h

Exercise: Requested read-out: TGI. Entry: OC/C=C/[C@H](OCc1ccccc1)[C@H](/C=C/CO)OCc1ccccc1
Solution: > 100 µM

Exercise: Requested read-out: TGI. Entry: c1ccc(Cc2cc(-c3ccccc3)n[nH]2)cc1
Solution: 36.7 µM

Exercise: Requested read-out: TGI. Entry: CC(OC(C)(C)C)[C@H](NC(=O)OCc1ccccc1)C(=O)NC(OCc1ccccc1)[C@H]1COC(C)(C)O1 (stereo partly specified)
Solution: > 10 µM

Exercise: Requested read-out: TGI. Entry: COc1cc2c(/C=C3\C(=O)N(C)c4ccc(O)cc43)c[nH]c2cc1C
Solution: > 100 µM

Exercise: Requested read-out: TGI. Entry: COC(=O)Cc1c(C(=O)CC(C)(C)n2cnc(CCN3C(=O)CCC3=O)c2)[nH]c2ccccc12
Solution: > 100 µM

Exercise: Requested read-out: TGI. Entry: c1cc2ccc3cc4ncccc4c4ccc(c1)c2c34
Solution: > 100 µM

---

tested on: K-562 leukemia; assay: NCI tumour cell line growth inhibition, 48 h
Please provide measured GI50 for the entries that follow.

Exercise: Requested read-out: GI50. Entry: O=C(OCc1nc2nc(Cl)nc(N3CCOCC3)c2[nH]1)n1ccnc1
Solution: 1680 nM

Exercise: Requested read-out: GI50. Entry: O=c1[nH]cnc2c1ccn2C1OC(CO)C(O)C1O (stereo not given)
Solution: 5860 nM

Exercise: Requested read-out: GI50. Entry: [C-]#[O+].[C-]#[O+].[C-]#[O+].[C-]#[O+].[O-]C(c1ccccc1[PH+]1OC(C(F)(F)F)(C(F)(F)F)c2ccccc21)(C(F)(F)F)C(F)(F)F.[Re] (stereo not given)
Solution: 2690 nM

Exercise: Requested read-out: GI50. Entry: CCC(=O)c1c(C(F)(F)F)n([O-])c2cc(N3CCNCC3)c(F)cc2[n+]1=O
Solution: 1650 nM

Exercise: Requested read-out: GI50. Entry: Cn1cc(-c2nonc2-c2cn(C)c3ccc(F)cc23)c2ccccc21
Solution: 311 nM

---

Please provide measured TGI for the entries that follow.
test system: SNB-75 CNS; assay: NCI tumour cell line growth inhibition, 48 h

Exercise: Requested read-out: TGI. Entry: O=C1NC(=NCc2ccccc2Br)S/C1=C\c1ccc2ncccc2c1
Solution: > 23.7 µM

Exercise: Requested read-out: TGI. Entry: Nc1cccc(CCN2CCN(CCCc3ccccc3)CC2)c1
Solution: > 100 µM

Exercise: Requested read-out: TGI. Entry: COc1cc(-c2cc(/C=C3\C(=O)Nc4cc(Cl)ccc43)[nH]n2)cc(OC)c1OC
Solution: 8.17 µM

Exercise: Requested read-out: TGI. Entry: NCCNS(=O)(=O)c1ccc(N)cc1
Solution: > 100 µM

Exercise: Requested read-out: TGI. Entry: CCN(CC)CCCNc1[nH]ncc2cc3c(nc4ccc(OC)cc43)c(C)c12
Solution: 23 µM

Exercise: Requested read-out: TGI. Entry: CCNCC(O)COc1ccc2c(c1)[n+]([O-])nc(N)[n+]2[O-] (centres undefined)
Solution: > 100 µM

Exercise: Requested read-out: TGI. Entry: Cn1ccnc1Sc1ccc(/C=N\NC(=O)c2cccc(F)c2)cc1[N+](=O)[O-]
Solution: 59.5 µM

Exercise: Requested read-out: TGI. Entry: Cc1cc2c(c3c1c1ccccc1n3C)C(=O)c1ccccc1C2=O
Solution: > 100 µM

Exercise: Requested read-out: TGI. Entry: Cc1cc(C)c2c(c1)CC1(Cc3c(ccc(C)c3C)C1=O)C2=O (centres undefined)
Solution: > 100 µM

Exercise: Requested read-out: TGI. Entry: COC(=O)c1cc2/c(=N/O)c3ccccc3sc2o1
Solution: > 100 µM

Exercise: Requested read-out: TGI. Entry: O=S(=O)(O)c1cc(N=Nc2cccc3ccccc23)c(O)c2ncccc12
Solution: > 100 µM

Exercise: Requested read-out: TGI. Entry: O=C(NC/C(Cl)=C/Cl)Nc1c2ccccc2nc2ccccc12
Solution: > 100 µM

Exercise: Requested read-out: TGI. Entry: COc1ccc(C(CC(C)=O)c2c(O)c3ccccc3oc2=O)cc1OC (centres undefined)
Solution: > 100 µM

Exercise: Requested read-out: TGI. Entry: CN=c1ss/c(=N\C(=S)N(C)C)n1-c1ccccc1
Solution: 42.6 µM

Exercise: Requested read-out: TGI. Entry: S=c1nc2sc3c(c2c(Nc2ccccc2)[nH]1)CCCC3
Solution: > 100 µM

Exercise: Requested read-out: TGI. Entry: CSc1nc(N)cc(Oc2ccc(-c3nc(Nc4cccc(C(F)(F)F)c4)n[nH]3)cc2)n1
Solution: 4.46 µM

Exercise: Requested read-out: TGI. Entry: O=C(CC1C(=O)Nc2ccccc2S1(=O)=O)Nc1cc(Cl)ccc1Cl (centres undefined)
Solution: 31 µM

Exercise: Requested read-out: TGI. Entry: c1ccc(Cc2cc(-c3ccccc3)n[nH]2)cc1
Solution: 15.8 µM

Exercise: Requested read-out: TGI. Entry: NC(Cc1ccc(O)c(O)c1)P(=O)(O)O (centres undefined)
Solution: > 100 µM

Exercise: Requested read-out: TGI. Entry: COc1cccc(CC2C(=O)N=C(NC(C)=O)N2C)c1OC(C)=O (centres undefined)
Solution: > 100 µM

Exercise: Requested read-out: TGI. Entry: N#Cc1c(-c2ccc(Cl)cc2)cc(-c2ccc(Nc3ccnc4cc(Cl)ccc34)cc2)nc1N
Solution: > 100 µM

Exercise: Requested read-out: TGI. Entry: Cc1cc(S(=O)(=O)NC2=NCC(C)NN2)c(S)cc1Cl (centres undefined)
Solution: > 100 µM

Exercise: Requested read-out: TGI. Entry: CC(OC(C)(C)C)[C@H](NC(=O)OCc1ccccc1)C(=O)NC(OCc1ccccc1)[C@H]1COC(C)(C)O1 (some centres undefined)
Solution: > 10 µM

Exercise: Requested read-out: TGI. Entry: C#C[C@]1(O)CCC2C3CCc4cc(Oc5nc(F)nc(-n6c(C)nc7cc8ccccc8cc76)n5)ccc4C3CCC21C (some centres undefined)
Solution: > 100 µM

Exercise: Requested read-out: TGI. Entry: N#C/C(=C/NC(=S)NCc1ccccc1)C(N)=O
Solution: > 100 µM

Exercise: Requested read-out: TGI. Entry: C=CCN1C(N)=C(C#N)C(C#N)(C#N)C1CCC (centres undefined)
Solution: > 100 µM

Exercise: Requested read-out: TGI. Entry: COc1cccc2c(=O)c3c(n(C)c12)OC(C(C)C)C3 (centres undefined)
Solution: > 100 µM

Exercise: Requested read-out: TGI. Entry: C[C@H]1CCC/C=C/[C@@H]2C[C@H](O)C[C@H]2[C@H](O)[C@@H](S(=O)C[C@@H](N)C(=O)O)CC(=O)O1 (some centres undefined)
Solution: 0.0194 µM

Exercise: Requested read-out: TGI. Entry: CC(C)c1cc2c(c(O)c1O)[C@@]1(C)CCCC(C)(C)C1=C(O)C2
Solution: 2.56 µM

Exercise: Requested read-out: TGI. Entry: NC(=O)C(N)CC12CC3CC(CC(C3)C1)C2 (centres undefined)
Solution: > 100 µM

Exercise: Requested read-out: TGI. Entry: O=C1C(N2CCOCC2)=C(Cl)C(=O)c2ncccc21
Solution: > 10 µM

Exercise: Requested read-out: TGI. Entry: COC(=O)CN1Cc2cc(C)cc(c2O)CN(CC(=O)OC)Cc2cc(C)cc(c2O)CN(CC(=O)OC)Cc2cc(C)cc(c2O)C1
Solution: > 74.7 µM

Exercise: Requested read-out: TGI. Entry: CC(NC(=O)OC(C)(C)C)C(=O)NC(Cc1ccccc1)C(=O)NCC(=O)ON=C1CCCC1 (centres undefined)
Solution: > 100 µM

Exercise: Requested read-out: TGI. Entry: COc1cc2c(cc1OC)C(C#N)(Cc1ccccc1)N(C(=O)c1ccccc1)C=C2 (centres undefined)
Solution: > 100 µM

Exercise: Requested read-out: TGI. Entry: c1cc2ccc3cc4ncccc4c4ccc(c1)c2c34
Solution: > 100 µM

Exercise: Requested read-out: TGI. Entry: COC12OCCN(CCO)C1=CC(=O)C1(C)N=NC(C)C12 (centres undefined)
Solution: > 100 µM

Exercise: Requested read-out: TGI. Entry: COc1ccc2oc(=N)c(C(N)=O)cc2c1
Solution: > 100 µM

Exercise: Requested read-out: TGI. Entry: CNS(=O)(=O)NNS(=O)(=O)c1cccc([N+](=O)[O-])c1
Solution: > 100 µM

Exercise: Requested read-out: TGI. Entry: COC1=CC(=O)[C@]2(C)[C@H](C1=O)C(C)[C@H]2c1ccc(OC)cc1 (some centres undefined)
Solution: > 100 µM

Exercise: Requested read-out: TGI. Entry: CCC(=O)c1c(C(F)(F)F)n([O-])c2cc(N3CCNCC3)c(F)cc2[n+]1=O
Solution: 12.5 µM

Exercise: Requested read-out: TGI. Entry: COc1ccc(-c2nc(N)n(C)c2SSc2c(-c3ccc(OC)cc3)nc(N)n2C)cc1
Solution: 24.8 µM

Exercise: Requested read-out: TGI. Entry: Cc1cc2nc(N3C(=O)/C(=C/c4ccc(Oc5ccccc5)cc4)N=C3c3ccccc3)sc2cc1C
Solution: > 100 µM

Exercise: Requested read-out: TGI. Entry: CN(C)CCn1cnc2sc3ccccc3c21
Solution: 86.6 µM

Exercise: Requested read-out: TGI. Entry: CC(=O)OC1CC(OC2C(O)CC(OC3C(O)CC(OC4CCC5(C)C(CCC6C5CCC5(C)C(C7=CC(=O)OC7)C(O)CC65O)C4)OC3C)OC2C)OC(C)C1OC1OC(CO)C(O)C(O)C1O (centres undefined)
Solution: 2.97 µM
